# assay name: qHTS profiling of the MIPE4 collection as inhibitors of Plasmodium falciparum (3D7) proliferation (AID 743344);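 further: scaled between DMSO vehicle wells and 0.29 µM artemisinin as full inhibition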
# condition info: P. falciparum 3D7 in erythrocytes, SYBR Green DNA fluorescence, 72 h; at 28.5 µM unless noted
assay endpoint: parasite growth, % of DMSO control

> print(dat)
                                   molecule  recorded.measurement
1             Nc1ccc(S(=O)(=O)Nc2ncccn2)cc1                 92.1%
2  CC(C)(C)OC(=O)Nc1ccc(-c2cc(C(=O)NCCCCCCC(=O)NO)no2)cc1                 4.81%
3  C[C@@]12O[C@@H](C[C@]1(O)CO)n1c3ccccc3c3c4c(c5c6ccccc6n2c5c31)CNC4=O                 6.66%
4  O=C(O)Cn1nnc(-c2cc(N3CCC(Oc4cc(F)ccc4Br)CC3)no2)n1                   86%
5  CCn1cc(-c2ccnc3[nH]c(-c4cccc(CN(C)C)c4)cc23)c(-c2ccc(NC(=O)N(C)C)cc2)n1                    5%
6  O=C1CCC[C@@H]2[C@H]3CCC[N+]4([O-])CCC[C@@H](CN12)[C@@H]34 (some centres undefined)                 64.9%
7  CCCCCN(CCC12CC3CC(CC(C3)C1)C2)C(=O)NCCCc1ccncc1                 6.26%
8  CN(C)Cc1c(C(=O)NCCOc2ccc(C(=O)NO)cc2)oc2ccccc12                 5.24%
9  COc1ccc(-n2nc(C(N)=O)c3c2C(=O)N(c2ccc(N4CCCCC4=O)cc2)CC3)cc1                 53.4%

----------
# assay name: qHTS of pediatric cancer cell lines to identify multiple opportunities for drug repurposing: Primary screen for BT-12 cells (AID 1347101); further: nearly all actives have a fitted effect of over 25% in size
# condition info: BT-12 viability, CellTiter-Glo luminescence, 48 h; series mostly up to 57.3 µM
Results filed as inconclusive are left out. The source made the active and inactive calls. The call rests on the fitted dose curve; in most records, active means well fitted cell-killing curve with a large enough effect; inconclusive means small, poorly fitted or top-dose-only effect; inactive means flat fitted curve, though single readings scatter.
Possible outcomes: active, inactive

> print(dat)
                                    compound  class.label
 1  CCN1CCN(Cc2ccc(-c3cc4c(N[C@H](C)c5ccccc5)ncnc4[nH]3)cc2)CC1       active
 2  C[C@@H](Oc1cc(-c2cnn(C3CCNCC3)c2)cnc1N)c1c(Cl)ccc(F)c1Cl       active
 3  COc1cc(C)c(Sc2cnc(NC(=O)c3ccc(CNC(C)C(C)C)cc3)s2)cc1C(=O)N1CCN(C(C)=O)CC1 (stereo not drawn)       active
 4  CC1(O)CC(c2nc(-c3ccc4ccc(-c5ccccc5)nc4c3)c3c(N)nccn23)C1 (stereo not drawn)       active
 5  CNC(=O)c1ccc(N2C(=S)N(c3cnc(C#N)c(C(F)(F)F)c3)C(=O)C23CCC3)cc1F       active
 6  O=C(Nc1cc(C(F)(F)F)cc(C(F)(F)F)c1)c1cc(Cl)ccc1O       active
 7  C[C@]12CC[C@H](O)CC1=CCC1C2CC[C@]2(C)C(n3cnc4ccccc43)=CCC12 (stereo partly drawn)     inactive
 8  O=C(NCCCNc1nc(Nc2cccc(NC(=O)N3CCCC3)c2)ncc1I)c1cccs1       active
 9  CC(O)C1C(=O)N2C(C(=O)O)=C(SC3CNC(C(=O)N(C)C)C3)C(C)C12 (stereo not drawn)     inactive
10  O=C(Cc1ccc(-c2ccc(OCCN3CCOCC3)cc2)cn1)NCc1ccccc1       active
11  COc1cc2c(cc1-c1c(C)noc1C)ncc1[nH]c(=O)n([C@H](C)c3ccccn3)c12       active
12  C[C@@]12O[C@@H](C[C@]1(O)CO)n1c3ccccc3c3c4c(c5c6ccccc6n2c5c31)CNC4=O       active
13  Nc1ccc(C(=O)c2cc3c(ccc4ccccc43)[nH]2)cc1       active
14  c1nc2nc(Nc3ccc(N4CCOCC4)cc3)nc(NC3CCCCC3)c2[nH]1       active
15  COc1cc(C(C)C)c2c(c1)S(=O)(=O)N(COc1cc(=O)n3cccc(OCCN4CCCCC4)c3n1)C2=O     inactive
16  C=CC(=O)Nc1cc2c(Nc3ccc(F)c(Cl)c3)ncnc2cc1C#CC(C)(C)N1CCN(C)CC1       active
17  COc1cc2c(Oc3ccc4[nH]c(C)cc4c3F)ncnc2cc1OCCCN1CCCC1       active
18  Cn1cc(-c2[nH]c3cc(NC(=O)[C@H](N)C4CCCCC4)cc4c3c2C=NNC4=O)cn1     inactive

----------
# Test system: Hek293T
# assay name: Primary qHTS to identify gynecologic anti-cancer compounds using libraries of approved drugs and bioactive compounds (AID 1345084); further: nearly all actives have a fitted effect of over 55% in size
# condition info: Gynecologic cancer cell panel viability, ATPlite luminescence, 48 h, control line for the selectivity index; series mostly up to 57.5 µM
# Excerpt: National Center for Advancing Translational Sciences [NCATS] Assay Overview: Chemotherapeutic drug responses vary from cancer to cancer and from patient to patient. […] ATPlite is a luminescence based assay reliant on the conversion of a luciferase substrate to light in the presence of ATP. As a cytotoxic compound will suppress growth and decrease the number of cells, the concentration of ATP will decrease, and less light signal will be detected in the well. […]
Records with an inconclusive call do not appear. Active and inactive are the calls of the source. The call rests on the fitted dose curve; in most records, active means well fitted cell-killing curve with a large enough effect; inconclusive means small, poorly fitted or top-dose-only effect, or effect the other way; inactive means flat fitted curve, though single readings scatter.
Possible outcomes: class 1 = active, class 0 = inactive

> print(dat)
                           smiles.structure  class.label
1  C[C@@H](Oc1cc(-c2cnn(C3CCNCC3)c2)cnc1N)c1c(Cl)ccc(F)c1Cl      class 1
2  Cc1cn(-c2cc(NC(=O)c3ccc(C)c(Nc4nccc(-c5cccnc5)n4)c3)cc(C(F)(F)F)c2)cn1      class 0
3  COc1ccc2c(OCc3nnc4ccc(-c5ccccc5)nn34)ccnc2c1      class 0
4  C[C@]1(CO)CN(c2cc(C(=O)Nc3ccc4c(c3)-c3c(c(C(N)=O)nn3-c3ccc(F)cc3)CC4)c(Cl)cn2)C[C@@]1(C)CO      class 0

----------
# assay name: qHTS of pediatric cancer cell lines to identify multiple opportunities for drug repurposing: Confirmatory screen for Rh41 cells (AID 1347123);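 further: 48 h compound exposure; nearly all actives have a fitted effect of over 60% in size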
# condition info: Rh41 rhabdomyosarcoma cells, viability/cytotoxicity qHTS; series mostly up to 45.9 µM
Inconclusive results are not listed. Active and inactive are the calls of the source. Calls follow the shape of the dose curve; as a rule, active = well fitted cell-killing curve with a large enough effect; inconclusive = small, poorly fitted or top-dose-only effect; inactive = no such curve, though single readings can be large or run the other way.
Possible outcomes: active, inactive

smiles structure	class label
CNC(=O)c1ccc(N2C(=S)N(c3cnc(C#N)c(C(F)(F)F)c3)C(=O)C23CCC3)cc1F	inactive
CC(C)(C)OC(=O)Nc1ccc(-c2cc(C(=O)NCCCCCCC(=O)NO)no2)cc1	active
CS(=O)(=O)N1CCN(Cc2cc3nc(-c4cccc5[nH]ncc45)nc(N4CCOCC4)c3s2)CC1	active
Cc1c(C)n(Cc2ccc(-c3ccccc3C(=O)O)cc2)c2ccc(C(=O)N[C@@H](C)c3ccc([N+](=O)[O-])cc3)cc12	active
C=CC(=O)Nc1cccc(Oc2nc(Nc3ccc(N4CCN(C)CC4)cc3)ncc2Cl)c1	active
COc1cccc2c(NCc3ccccc3)nc(-n3c(N)nc4ccccc43)nc12	active
O=C(Nc1cn[nH]c1-c1nc2ccc(CN3CCOCC3)cc2[nH]1)NC1CC1	inactive
Cc1ccc(C(=O)Nc2ccc(CN3CCN(C)CC3)c(C(F)(F)F)c2)cc1C#Cc1cnc2cccnn12	active
Cc1c(CN2CCN(S(C)(=O)=O)CC2)sc2c(N3CCOCC3)nc(-c3cnc(N)nc3)nc12	active
Cn1c(=O)n(-c2ccc(C(C)(C)C#N)cc2)c2c3cc(-c4cnc5ccccc5c4)ccc3ncc21	active
Cc1ccc(C(N)=O)cc1Nc1nccc(-c2cn(C(C)C)c3cnccc23)n1	active
CC1(C)CCC(c2ccc(Cl)cc2)=C(CN2CCN(c3ccc(C(=O)NS(=O)(=O)c4ccc(N[C@H](CCN5CCOCC5)CSc5ccccc5)c(S(=O)(=O)C(F)(F)F)c4)cc3)CC2)C1	inactive
Nc1ccn([C@@H]2O[C@H](CO)[C@H](O)C2(F)F)c(=O)n1	active
CC(C)c1cnn2c(NCc3ccccc3)cc(N[C@@H](CO)[C@H](O)CO)nc12	active
C=CC(=O)N1CCC[C@@H](n2nc(-c3ccc(Oc4ccccc4)cc3)c3c(N)ncnc32)C1	active
C=CCn1c(=O)c2cnc(Nc3ccc(N4CCN(C)CC4)cc3)nc2n1-c1cccc(C(C)(C)O)n1	active
COc1cccc2nc(-c3cccs3)nc(NN3C(=O)C=C(C)C3=O)c12	active
C=CC(=O)Nc1cc2c(Nc3ccc(F)c(Cl)c3)ncnc2cc1C#CC(C)(C)N1CCN(C)CC1	active

----------
# assay name: Quantitative High-Throughput drug screen in 47 multiple myeloma cell lines against the NCATS MIPE library collection: RPMI8226_ATCC cell viability assay (AID 1919871); further: nearly all actives have a fitted effect of over 30% in size
# condition info: RPMI8226 myeloma viability, CellTiter-Glo ATP luminescence, 48 h; series mostly up to 45.8 µM
Inconclusive results are not listed. Active and inactive are the calls of the source. Calls follow the shape of the dose curve; as a rule, active = well fitted cell-killing curve with a large enough effect; inconclusive = small, poorly fitted or top-dose-only effect, or effect the other way; inactive = no such curve, though single readings can be large or run the other way.
Possible outcomes: Y = active, N = inactive

> print(dat)
                           smiles.structure  class.label
1  Cc1cnc(Nc2ccc(F)cc2Cl)nc1-c1c[nH]c(C(=O)N[C@H](CO)c2cccc(Cl)c2)c1            Y
2  CC(C)(C)c1cc(C(C)(C)C)c(NC(=O)c2c[nH]c3ccccc3c2=O)cc1O            N
3  O=C(O)c1ccc2c(c1)nc(Nc1cccc(Cl)c1)c1ccncc12            Y
4  Cc1cccc(C=NNc2cc(N3CCOCC3)nc(OCCc3ccccn3)n2)c1            Y
5  Nc1ccn([C@@H]2O[C@H](CO)[C@H](O)C2(F)F)c(=O)n1            Y
